target: 5-hydroxytryptamine receptor 6 (Homo sapiens) (UniProt P50406); test: Antagonist activity at human recombinant 5HT6 receptor expressed in CHO cells assessed as inhibition of 5HT-induced luciferase activity after 4 hrs by reporter gene assay relative to control; assay type: functional, cell-based
Sequence (P50406 whole entry): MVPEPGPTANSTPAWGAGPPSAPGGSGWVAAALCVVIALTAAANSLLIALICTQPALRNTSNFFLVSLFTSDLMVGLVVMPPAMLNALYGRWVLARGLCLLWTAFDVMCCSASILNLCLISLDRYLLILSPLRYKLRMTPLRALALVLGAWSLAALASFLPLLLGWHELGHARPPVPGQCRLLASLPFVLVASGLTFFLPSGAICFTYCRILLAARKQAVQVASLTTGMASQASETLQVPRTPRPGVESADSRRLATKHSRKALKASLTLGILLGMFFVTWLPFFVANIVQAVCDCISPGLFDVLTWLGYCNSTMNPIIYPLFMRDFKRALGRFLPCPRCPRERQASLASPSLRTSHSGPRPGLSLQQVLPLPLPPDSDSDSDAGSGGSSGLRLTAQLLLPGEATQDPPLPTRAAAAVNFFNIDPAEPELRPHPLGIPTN
endpoint: Imax
The number alone won't do; follow it with the unit.

{"smiles-repr": "COc1ccc(S(=O)(=O)n2cc(C)c3cc(Cl)ncc32)cc1NC1CCN(C)CC1", "endpoint": "Imax", "reported-result": "85%"}

Prompt: Looking for the measured Imax of "CN1CCC(Nc2cccc(S(=O)(=O)n3ccc4cc(Br)ccc43)c2)CC1" , can you help?
Completion: 98%

Prompt: Looking for the measured Imax of "COc1ccc(S(=O)(=O)N2CCOc3ccc(C(F)(F)F)cc32)cc1NC1CCN(C)CC1" , can you help?
Completion: 100%

Prompt: Looking for the measured Imax of "CN1CCC(Nc2cccc(S(=O)(=O)n3ccc4ccc(Cl)cc43)c2)CC1" , can you help?
Completion: 98%

Prompt: Looking for the measured Imax of "COc1cnc2c(ccn2S(=O)(=O)c2ccc(OC)c(NC3CCN(C)CC3)c2)c1" , can you help?
Completion: 90%
